pIC50: −log10 of the molar value.
Several publications report pIC50 on Trypanothione reductase (Trypanosoma cruzi, UniProt P28593); those values are gathered here.
Measured quantity: pIC50

>  <Compound structure string>
N=C(NCCCNCCCNCCCNC(=N)NC(=N)NCC(c1ccccc1)c1ccccc1)NC(=N)NCC(c1ccccc1)c1ccccc1

>  <pIC50>
5.38

$$$$
>  <Compound structure string>
CCCCCCCNC(=O)CCCC(=O)Nc1cccc(Sc2ccc(Br)cc2NC(=O)CCN2CCN(C)CC2)c1

>  <pIC50>
4.64

$$$$
>  <Compound structure string>
Cc1ccc(C[N+](C)(C)CCCN2c3ccccc3Sc3ccc(Cl)cc32)cc1

>  <pIC50>
4.97

$$$$

A: C[N+](C)(CCCN1c2ccccc2Sc2ccc(Cl)cc21)C(c1ccccc1)c1ccccc1
B: CN1CCN(CCC(=O)Nc2cc(Br)ccc2Sc2cccc(NC(=O)CCCC(=O)NC(c3ccccc3)c3ccccc3)c2)CC1
Which of these two has the smaller recorded pIC50: A or B ? State the label of the item chosen.
B
(B: 4.55, A: 5.92)

* * *

pIC50: −log10 of the molar value.
Several publications report pIC50 on Trypanothione reductase (Trypanosoma cruzi); those values are gathered here.
Measured quantity: pIC50

These recorded examples may help you get a feel for the data.
>  <Compound structure string>
CN(C)Cc1ccc(Nc2ccc(NC(=O)CCCCCC(=O)Nc3cccc(Sc4ccc(Br)cc4NC(=O)CCN4CCN(C)CC4)c3)c3c2C(=O)c2ccccc2C3=O)cc1

>  <Tgt>
Trypanothione reductase (Trypanosoma cruzi)

>  <Measured quantity>
pIC50

>  <Obs value>
5.48

$$$$
>  <Compound structure string>
CC(C)(C)c1ccc(C[N+](C)(C)CCCN2c3ccccc3Sc3ccc(Cl)cc32)cc1

>  <Tgt>
Trypanothione reductase (Trypanosoma cruzi)

>  <Measured quantity>
pIC50

>  <Obs value>
5.39

$$$$

1: NC(=NCCCNCCCCCCCNCCCN=C(N)NCCC(c1ccccc1)c1ccccc1)NCCC(c1ccccc1)c1ccccc1
2: NC(=NCCCNCCCCCCCNCCCN=C(N)NCC(c1ccccc1)c1ccccc1)NCC(c1ccccc1)c1ccccc1
3: CN1CCN(CCC(=O)Nc2cc(Br)ccc2Sc2cccc(NC(=O)CCCC(=O)NCCc3ccccc3)c2)CC1
Let's sort these by pIC50, smallest first. Go ahead? In plain terms: list the labels in the order you were asked to.
3, 2, 1

* * *

pIC50: −log10 of the molar value.
Several publications report pIC50 on Trypanothione reductase (Trypanosoma cruzi); those values are gathered here.
Measured quantity: pIC50

These recorded examples may help you get a feel for the data.
>  <Compound structure string>
O=C1/C(=C/c2ccncc2)CCC/C1=C\c1ccncc1

>  <Obs value>
4.83

$$$$
>  <Compound structure string>
C[N+](C)(CCCN1c2ccccc2Sc2ccc(Cl)cc21)Cc1c(F)c(F)c(F)c(F)c1F

>  <Obs value>
5.00

$$$$

1: Cc1cc(C(=O)C[N+](C)(C)CCCN2c3ccccc3Sc3ccc(Cl)cc32)ccc1Cl
2: Cc1ccc(C[N+](C)(C)CCCN2c3ccccc3Sc3ccc(Cl)cc32)cc1C
3: O=C1/C(=C/c2ccccc2)CCC/C1=C\c1ccccc1
4: CN1CCN(CCC(=O)Nc2cc(Br)ccc2Sc2cccc(NC(=O)CCCCCC(=O)Nc3cccc(Sc4ccccc4N)c3)c2)CC1
Let's sort these by pIC50, smallest first. Go ahead? In plain terms: list the labels in the order you were asked to.
3, 4, 1, 2
(3: 4.34, 4: 4.80, 1: 5.07, 2: 5.41)

* * *

Several publications report IC50 on Trypanothione reductase (Trypanosoma cruzi); those values are gathered here.
Measured quantity: IC50 (µM)

>  <Molecule>
CCN(CC)CCCC(C)Nc1c2ccc(Cl)cc2nc2ccc(OC)cc12 (stereo not drawn)

>  <IC50 (µM)>
133

$$$$
>  <Molecule>
C[N+](C)(CCCN1c2ccccc2Sc2ccc(Cl)cc21)Cc1ccc(Cl)c(Cl)c1

>  <IC50 (µM)>
0.78

$$$$
>  <Molecule>
N=C(NCCCNCCCCNCCCNC(=N)NC(=N)NCCC(c1ccccc1)c1ccccc1)NC(=N)NCCC(c1ccccc1)c1ccccc1

>  <IC50 (µM)>
2.96

$$$$
>  <Molecule>
C[N+](C)(CCCN1c2ccccc2Sc2ccc(Cl)cc21)CC1CCCCC1

>  <IC50 (µM)>
10.5

$$$$
>  <Molecule>
CN1CCN(CCC(=O)Nc2cc(Br)ccc2Sc2cccc(NC(=O)CCCC(=O)NCc3ccccc3)c2)CC1

>  <IC50 (µM)>
35

$$$$

I: NC(=NCCCNCCCNCCCN=C(N)NCC(c1ccccc1)c1ccccc1)NCC(c1ccccc1)c1ccccc1
II: CN1CCN(CCC(=O)Nc2cc(Br)ccc2Sc2cccc(NC(=O)CCCCCC(=O)OCC3=C(Br)C(=O)c4ccccc4C3=O)c2)CC1
III: C[N+](C)(CCCN1c2ccccc2Sc2ccc(Cl)cc21)Cc1ccc(Cl)cc1
IV: C[N+](C)(C)CCCN1c2ccccc2Sc2ccc(Cl)cc21
V: CN1CCN(CCC(=O)Nc2cc(Br)ccc2Sc2cccc(NC(=O)CCCC(=O)Nc3cccc(Sc4ccc(Br)cc4NC(=O)CCN4CCN(C)CC4)c3)c2)CC1
Let's sort these by IC50, smallest first. Go ahead? In plain terms: list the labels in the order you were asked to.
V, I, III, IV, II
(V: 0.55 µM, I: 3.6 µM, III: 12.7 µM, IV: 28 µM, II: 41 µM)

* * *

pIC50: −log10 of the molar value.
Several publications report pIC50 on Trypanothione reductase (Trypanosoma cruzi); those values are gathered here.

>  <Compound>
O=C1/C(=C/c2ccnc3ccccc23)CC/C1=C\c1ccnc2ccccc12

>  <pIC50>
< 4.00

$$$$
>  <Compound>
CC(C)(C)OC(=O)NNC(=O)c1ccc([N+](=O)[O-])o1

>  <pIC50>
< 4.30

$$$$
>  <Compound>
NCCCCC(N)C(=O)Nc1ccc2ccccc2c1 (centres undefined)

>  <pIC50>
< 4.00

$$$$

Param item: `O=C1/C(=C/c2ccc[nH]2)CCC/C1=C\c1ccc[nH]1` ; param system: Trypanothione reductase (Trypanosoma cruzi); output pIC50: < 4.00

* * *

Several publications report IC50 on Trypanothione reductase (Trypanosoma cruzi); those values are gathered here.

These recorded examples may help you get a feel for the data.
>  <Compound structure string>
O=C(NNC(=O)c1ccc([N+](=O)[O-])o1)c1ccc([N+](=O)[O-])o1

>  <IC50>
> 50 µM

$$$$
>  <Compound structure string>
NC(=O)C1(N2CCCCC2)CCN(CC(=O)Nc2ccccc2Sc2ccccc2)CC1

>  <IC50>
> 100 µM

$$$$
>  <Compound structure string>
O=C1/C(=C/c2ccncc2)CC/C1=C\c1ccncc1

>  <IC50>
> 100 µM

$$$$
>  <Compound structure string>
O=C(CN1CCN(c2ccccc2)CC1)Nc1ccccc1Sc1ccccc1

>  <IC50>
> 100 µM

$$$$
>  <Compound structure string>
O=C1/C(=C/c2cccc3cnccc23)CC/C1=C\c1cccc2cnccc12

>  <IC50>
> 100 µM

$$$$
>  <Compound structure string>
O=C1/C(=C/c2ccc(Cn3cc(-c4ccccc4)nn3)cc2)CC/C1=C\c1ccc(Cn2cc(-c3ccccc3)nn2)cc1

>  <IC50>
> 100 µM

$$$$
>  <Compound structure string>
Cc1ccc(/C=C2\CCC/C(=C\c3ccc(C)cc3)C2=O)cc1

>  <IC50>
> 100 µM

$$$$

As a next step, examine the molecule that follows.
Param item: `CCCCCCCCCCCCCCCCNC(=O)CCCC(=O)Nc1cccc(Sc2ccc(Br)cc2NC(=O)CCN2CCN(C)CC2)c1` ; param system: Trypanothione reductase (Trypanosoma cruzi); output IC50: > 60 µM
